Source: patent US20230416329A1

# reported Residual trypsin activity (%); entries follow
- SYSTEM_NAME: bovine trypsin (bovine, UniProt P00760 24-246)
- Sequence (P00760 24-246): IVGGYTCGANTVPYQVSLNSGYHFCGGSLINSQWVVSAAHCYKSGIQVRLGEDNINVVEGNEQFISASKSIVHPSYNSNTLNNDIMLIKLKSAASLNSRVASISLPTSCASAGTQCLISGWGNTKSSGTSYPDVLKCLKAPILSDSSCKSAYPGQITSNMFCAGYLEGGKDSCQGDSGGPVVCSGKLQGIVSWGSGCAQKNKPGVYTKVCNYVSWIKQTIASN
- METHOD_DESCRIPTION: trypsin (50 nM) BApNA hydrolysis, OD405; peptide at 0.098 µM
Bridge positions count the residues as written; N and C are the ends. Ends that are not written are not given here.
Put your answer as a value accompanied by its unit after it.

Study these solved cases before continuing.
1) CGRAAKSIPPICF (disulfide 1-12 (inferred), synthetic) [BT26] ... 100%
2) CGRSTKSIPPICF (disulfide 1-12 (inferred), synthetic) [BT47] ... 5.6%
3) CGRQTKSIPPICF (disulfide 1-12 (inferred), synthetic) [BT54] ... 7.2%

The recorded Residual trypsin activity (%) for entry CGRYTKSIPPICF (disulfide 1-12 (inferred), synthetic) [BT53] equals 63%

# Residual trypsin activity (%) of CGTATKSIPPICF (disulfide 1-12 (inferred), synthetic) [BT25] = 100%
